Protocol Description: recombinant barcode read abundance after kanamycin selection (control-corrected) (log10(CPM+1)); higher = more efficient recombination; sequences stand for … in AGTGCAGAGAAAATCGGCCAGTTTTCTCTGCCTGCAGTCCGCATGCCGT…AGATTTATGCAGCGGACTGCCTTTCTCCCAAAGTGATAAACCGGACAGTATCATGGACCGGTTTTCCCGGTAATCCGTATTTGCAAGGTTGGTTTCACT; site = the 11-nt target;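 also: IS621 recombinase and bridge RNA in Escherichia coli cells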
Decide using recombinant barcode read abundance (log10): a value greater than or equal to 0.2 is 1 (yes), a smaller one is 0 (no).

Sequence Data: TACGTGGCTTGGGTTCTAACCTGTTGCCT (site TACGTGGCTAG)
Category Label: 1 (yes)
--
Sequence Data: TTAGCTTCTTGGGTTCTAACCTGTTGCCT (site TTAGCTTCTAG)
Category Label: 0 (no)
--
Sequence Data: GGCGCGTCTTGGGTTCTAACCTGTTGCAT (site GGCGCGTCTAT)
Category Label: 1 (yes)
--
Sequence Data: ATCGGCCCTTGGGTTCTAACCTGTTGCTG (site GTGGGCCCTCA)
Category Label: 0 (no)
--
Sequence Data: TGGCAGGCTTGGGTTCTAACCTGTTGCCT (site TGGCAGACTAG)
Category Label: 0 (no)
